target: RSV F on RSV-A2 virus (Respiratory Syncytial Virus (RSV-A2), UniProt P03420 26-574); experiment: cell-based or functional assay
ASSAY READOUT: Neutralization IC50 (RSV subtype A)

Below: 4 binders and their reported Neutralization IC50 (RSV subtype A).
ADI-41472 (antibody, V domains shown) VH: QVQLVQSGAEVKKPGSSVKVSCKASGGTFSSYAISWVRQAPGQGLEWMGRIIPVLDITNYAQKFQGRVTIMADKSTSTAYMELSSLRSEDTAIYYCARETSNFYFYYNAMDVWGQGTTVTVSS VL: QPVLTQPPSASGSPGQSVTISCTGTSSDVGGDNYVSWYQQHPGKAPKLLIYEVSKRPSGVPDRFSGSRSGHTASLTVSGLQAEDEADYYCSSYAGRNNLGVFGGGTKLTVL ... 0.27 µg/mL
ADI-43643 (antibody, V domains shown) VH: QVQLVQSGGGLVKPGGSLRLSCAASGFTFSSYSMNWVRQAPGKGLEWVSSISSSSSYIYYADSVKGRFTISRDNAKNSLYLQMNSLRAEDTAVYYCARVLSGYSYGYDYWGQGTLVTVSS VL: QSVLTQPPSVSGAPGQRVTISCTGSSSNIGAGYDVHWYQQLPGTAPKLLIYGNSNRPSGVPDRFSGSKSGTSASLAITGLQAEDEADYYCQSYDSSLSGSVFGTGTKVTVL ... > 25 µg/mL
ADI-41488 (antibody, V domains shown, also called Ab 769; Antibody Number 769) VH: EVQLVESGPGLVKPSETLSLTCTVSGGSINSDYWNWIRQTPGKGLEWIGYIFYSGNTNYNPSLKSRVTISIDTSKKKFSLQVTSVTAADTAVYYCARMGTLKFDFDNWGQGTLVTVSS VL: QSALTQPRSVSGSPGQSVTIPCTGTSSDVGAYKYVSWYQQHPGKAPKLIIYDVTKRPSGVPNRFSGSKSGNTASLTISGLQAEDEADYYCCSYAGTHTYWVFGGGTKVTVL ... > 25 µg/mL
ADI-41493 (antibody, V domains shown, also called Ab 773; Antibody Number 773) VH: QVQLVQSGAEVKKPGESLKISCKGSGYSFTKYWIGWVRQLPGKGLEWMGIIYPGDSETIYSPSFQGQVTISADKSVSTAYLQWSSLKASDTAMYYCARQTFVFWGESHDAFDIWGQGTTVTVSS VL: QPVLTQPPSASGSPGQSVTISCTGTSSDVGAHNYVSWYQQHPGKAPKLMIYEVSKRPSGVPDRFSGSKSGNTASLTVSGLQAEDEADYYCSSYAGSNNWVFGGGTKLTVL ... > 25 µg/mL

In: What value of Neutralization IC50 (RSV subtype A) has been recorded for this entry: ADI-41499 (antibody, V domains shown) VH: EVQLVESGGVVVQPGGSLRLSCAASGFSFDDYTMYWVRQAPEKGLEWISLISWNGGVTYYPDSVKGRFTVSRDNNKNSLYLQMDSLRPEDSAFYYCAKESLESSGHFLDYWGQGTLVTVSS VL: QPVLTQSRSVSGSPGQSVTISCIGTNSDVGGYHYVSWFQHHPGKAPKLMIYDVSRRPSGVPARFSGSKSGNTASLSISGLRAEDEADYYCCSFAGTYTPYVFGTGTKLTVL
Out: > 25 µg/mL
